- assay-notes: Cell Viability - LYMP2-009 (AID 968);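 also: cells exposed to compound for 24 h at 37 °C; nearly all actives have a fitted effect of over 55% in size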
- test-settings: LYMP2-009 lymphoblastoid cell viability; series mostly up to 92.2 µM
Records with an inconclusive call do not appear. Activity calls are given as the source filed them. Calls follow the shape of the dose curve; as a rule, active = well fitted cell-killing curve with a large enough effect; inconclusive = small, poorly fitted or top-dose-only effect; inactive = flat fitted curve, though single readings scatter.
Hi there, use one of these labels in your reply, thanks! active, inactive

Exercise: How was CCOc1ccc(N)cc1 classified in this test?
Key: inactive

Exercise: How was Brc1ccccc1 classified in this test?
Key: inactive

Exercise: How was O=NN(CCO)CCO classified in this test?
Key: inactive

Exercise: How was c1nc[nH]n1 classified in this test?
Key: inactive

Exercise: How was C=CC1CC=CCC1 (centres undefined) classified in this test?
Key: inactive

Exercise: How was C/C=C/c1ccc2c(c1)OCO2 classified in this test?
Key: inactive

Exercise: How was COP(=S)(OC)Oc1ccc([N+](=O)[O-])cc1 classified in this test?
Key: inactive

Exercise: How was CC(O)CCl (centres undefined) classified in this test?
Key: inactive

Exercise: How was Brc1ccc(Oc2cc(Br)c(Br)cc2Br)c(Br)c1 classified in this test?
Key: inactive

Exercise: How was Clc1cc(Cl)c(-c2cc(Cl)c(Cl)cc2Cl)cc1Cl classified in this test?
Key: inactive

Exercise: How was CCOP(=S)(OCC)Oc1ccc([N+](=O)[O-])cc1 classified in this test?
Key: inactive

Exercise: How was C1CCC2CCCCC2C1 (centres undefined) classified in this test?
Key: inactive

Exercise: How was Cc1ccc([N+](=O)[O-])cc1C classified in this test?
Key: inactive

Exercise: How was CCOP(=S)(OCC)SCSC(C)(C)C classified in this test?
Key: inactive

Exercise: How was CCCCOCCOP(=O)(OCCOCCCC)OCCOCCCC classified in this test?
Key: inactive

Exercise: How was OCC1CO1 (centres undefined) classified in this test?
Key: inactive

Exercise: How was Clc1ccc2ccccc2c1 classified in this test?
Key: inactive

Exercise: How was C=C(C)C(=O)OCC1CO1 (centres undefined) classified in this test?
Key: inactive

Exercise: How was Nc1ccc(Br)cc1 classified in this test?
Key: inactive

Exercise: How was O=NN(c1ccccc1)c1ccccc1 classified in this test?
Key: inactive

Exercise: How was O=C(Cl)C(Cl)(Cl)Cl classified in this test?
Key: inactive

Exercise: How was NC(=S)Nc1ccccc1 classified in this test?
Key: inactive

Exercise: How was ClC(Cl)(Cl)c1ccccc1 classified in this test?
Key: inactive

Exercise: How was Clc1cccc(C(Cl)(Cl)Cl)n1 classified in this test?
Key: inactive

Exercise: How was C[C@H]1CCCC(=O)CCC/C=C/c2cc(O)cc(O)c2C(=O)O1 classified in this test?
Key: inactive

Exercise: How was C=CC(=C)C classified in this test?
Key: inactive

Exercise: How was CN=C=S classified in this test?
Key: inactive

Exercise: How was N#CCCCl classified in this test?
Key: inactive

Exercise: How was COc1ccc(C=O)cc1OC classified in this test?
Key: inactive

Exercise: How was c1ccc(N=Nc2ccccc2)cc1 classified in this test?
Key: inactive

Exercise: How was [O-][Br+2]([O-])O classified in this test?
Key: inactive

Exercise: How was O=C1C(Cl)=C(Cl)C(=O)C(Cl)=C1Cl classified in this test?
Key: active

Exercise: How was CCCCCCCC(=O)Cl classified in this test?
Key: inactive

Exercise: How was CCNc1nc(Cl)nc(NC(C)C)n1 classified in this test?
Key: inactive

====

- assay-notes: qHTS assay for small molecule agonists of retinoid X receptor alpha signaling (AID 588544)
- test-settings: HEK293T RXRa-UAS-bla, beta-lactamase reporter, 18 h; 530 nm emission
Records with an inconclusive call do not appear.
result-type: max response (%)
// note: answer is a bare numeric in %

Exercise: Value lookup for max response; key = Cc1ccc([N+](=O)[O-])cc1C
Key: -11.5

Exercise: Value lookup for max response; key = ClCBr
Key: -17.3

Exercise: Value lookup for max response; key = CC(Cl)Cl
Key: -6.24

Exercise: Value lookup for max response; key = O=C(Cl)/C=C/C(=O)Cl
Key: -9

Exercise: Value lookup for max response; key = CCSC(=O)Cl
Key: -20.5

Exercise: Value lookup for max response; key = O=NN(CCO)CCO
Key: -8.04

Exercise: Value lookup for max response; key = CCN(CC)c1ccccc1
Key: -1.24

Exercise: Value lookup for max response; key = CC(C)Nc1nc(Cl)nc(NC(C)C)n1
Key: 7.09

Exercise: Value lookup for max response; key = N#Cc1c(Cl)cccc1Cl
Key: -4.43

Exercise: Value lookup for max response; key = Cc1cccc(O)c1
Key: -15.1

Exercise: Value lookup for max response; key = Nc1ccc(Br)cc1
Key: 1.14

Exercise: Value lookup for max response; key = CC(C)(C)OOC(C)(C)C
Key: -0.936

Exercise: Value lookup for max response; key = CCS(=O)CCSP(=O)(OC)OC (configuration not stated)
Key: -13.5

Exercise: Value lookup for max response; key = Clc1nc(Cl)nc(Nc2ccccc2Cl)n1
Key: -6.76

Exercise: Value lookup for max response; key = COc1nc(NC(C)C)nc(NC(C)C)n1
Key: 21.4

Exercise: Value lookup for max response; key = CC(C)N1C(=O)c2ccccc2NS1(=O)=O
Key: -6.21

Exercise: Value lookup for max response; key = CCc1cccc(CC)c1N(COC)C(=O)CCl
Key: 19.2

Exercise: Value lookup for max response; key = c1ccc2c(c1)CCCC2
Key: -21.1

Exercise: Value lookup for max response; key = C[C@]12CC[C@H]3[C@@H](CCC4=CC(=O)CC[C@@]43C)[C@@H]1CC[C@@H]2O
Key: 3.81

Exercise: Value lookup for max response; key = c1nc[nH]n1
Key: -16.7

Exercise: Value lookup for max response; key = Nc1ccccc1Cl
Key: -4.32

Exercise: Value lookup for max response; key = Clc1ccc2ccccc2c1
Key: -15.7

Exercise: Value lookup for max response; key = C=CCOC(C)=O
Key: -7.26

Exercise: Value lookup for max response; key = CNC(=O)N(C)c1nnc(C(C)(C)C)s1
Key: -5.03

Exercise: Value lookup for max response; key = Oc1ccc(Cl)cc1Cl
Key: 1.97

Exercise: Value lookup for max response; key = C=CCOC(=O)c1ccccc1N
Key: 1.54

Exercise: Value lookup for max response; key = C/C=C/c1ccc2c(c1)OCO2
Key: -11.2

Exercise: Value lookup for max response; key = CNC(=O)Oc1cccc2c1OC(C)(C)O2
Key: -5.16

Exercise: Value lookup for max response; key = Nc1c(Cl)c(Cl)nc(C(=O)O)c1Cl
Key: 27.1

Exercise: Value lookup for max response; key = CCCC(=O)Cl
Key: -4.61

Exercise: Value lookup for max response; key = C=C(C)C(=O)OCC1CO1 (configuration not stated)
Key: -10.2

Exercise: Value lookup for max response; key = O=[N+]([O-])c1ccc(Cl)c(Cl)c1
Key: 1.86

====

- assay-notes: qHTS assay to identify small molecules that stimulate interleukin-8 (IL-8) secretion (AID 651758); as to activation: 0% is about no effect
- test-settings: HTRF ratio (665/615); series mostly up to 92.2 µM
Results filed as inconclusive are left out. Calls of active or inactive are those of the source. Calls follow the shape of the dose curve; as a rule, active = well fitted activation curve with a large enough effect in the signal ratio; inconclusive = small, poorly fitted or top-dose-only effect, or effect the other way, or a change in a side signal; inactive = flat fitted curve, though single readings scatter; the % refers to the signal ratio.
Hi there, use one of these labels in your reply, thanks! t (active), f (inactive)

Exercise: How was Clc1cccc(C(Cl)(Cl)Cl)n1 classified in this test?
Key: f

Exercise: How was Cc1ccccc1N classified in this test?
Key: f

Exercise: How was c1ccc(OP(Oc2ccccc2)Oc2ccccc2)cc1 classified in this test?
Key: f

Exercise: How was ClC(Cl)=C(c1ccc(Cl)cc1)c1ccc(Cl)cc1 classified in this test?
Key: f

Exercise: How was CCNc1nc(Cl)nc(NC(C)C)n1 classified in this test?
Key: f

Exercise: How was ClCBr classified in this test?
Key: f

Exercise: How was O=NN(c1ccccc1)c1ccccc1 classified in this test?
Key: f

Exercise: How was CCCSC(=O)Cl classified in this test?
Key: f

Exercise: How was C=CCc1ccc2c(c1)OCO2 classified in this test?
Key: f

Exercise: How was C=CC(N)=O classified in this test?
Key: f

Exercise: How was ClC1=C(Cl)C2(Cl)C3C4C=CC(C4)C3C1(Cl)C2(Cl)Cl (configuration not stated) classified in this test?
Key: t

Exercise: How was Nc1c(Cl)c(Cl)nc(C(=O)O)c1Cl classified in this test?
Key: f

====

- Tested on: CP247
- assay-notes: qHTS profiling for inhibitors of Plasmodium falciparum proliferation (AID 504749); also: nearly all actives have a fitted effect of over 60% in size; also: potency is read from the fitted curve at half-maximal effect
- test-settings: P. falciparum in erythrocytes, SYBR Green DNA, 72 h; series mostly up to 28.7 µM
Inconclusive results are not listed. Active and inactive are the calls of the source. Calls follow the shape of the dose curve; as a rule, active = well fitted inhibition curve with a large enough effect; inconclusive = small, poorly fitted or top-dose-only effect; inactive = flat fitted curve, though single readings scatter.
result-type: Potency

Answered cases to consult:
C[C@@H]1O[C@H](O[C@@H]2C=C3CC[C@H]4[C@@H](CC[C@]5(C)[C@@H](c6ccc(=O)oc6)CC[C@]45O)[C@@]3(C)CC2)[C@@H](O)[C@H](O)[C@@H]1O ... inactive
C#CCN(C)[C@@H](C)Cc1ccccc1 ... inactive
C[N+]1([O-])[C@@H]2CC[C@H]1CC(OC(=O)[C@@H](CO)c1ccccc1)C2 (some centres undefined) ... inactive
C=CC1CN2CCC1CC2C(OC(=O)OCC)c1ccnc2ccc(OC)cc12 (centres undefined) ... 7.94 µM (active)
O=[As]O[As]=O (centres undefined) ... 7.94 µM (active)
CCCC[N+]1(C)C2CC(OC(=O)C(CO)c3ccccc3)CC1C1OC12 (centres undefined) ... inactive
CCN(CC)C(=O)N[C@@H]1C[C@@H]2c3cccc4[nH]cc(c34)C[C@H]2N(C)C1 ... inactive
C[C@@]12CCC(=O)C=C1C=C[C@H]1[C@H]3CC[C@](O)(CCC(=O)O)[C@]3(C)CC[C@@H]12 ... inactive

Exercise: Value lookup for Potency; key = C[C@]12CC[C@H](OS(=O)(=O)O)CC1=CCC1C2CC[C@]2(C)C(=O)CC[C@@H]12 (some centres undefined)
Key: inactive
